experiment: Evaluation of excretion and half-life for Testosterone following intramusculary administration of testosterone doses.; assay type: ADME, organism-based; details: human, in vivo, im; dosed compound id 32, dosed compound name TESTOSTERONE, gender male, tissue Plasma
reported-property: half-life

- compound: "C[C@]12CC[C@H]3[C@@H](CCC4=CC(=O)CC[C@@]43C)[C@@H]1CC[C@@H]2O [TESTOSTERONE]"
  reported-property: "half-life"
  obs-value: "10 to 100 min"
